- System: OVCAR-5
- PROTOCOL_NOTES: NCI tumour cell line growth inhibition, 48 h
The source made the active and inactive calls. No stated cut-off is given here; in the data, active = GI50 up to about 1.1 µM and inactive = higher.
Classes to choose from: active, inactive

Examples from the recorded data:
MOLECULE | LABEL_VALUE
CCOC(=O)/C=C(\C(=O)OCC)n1ccc(=O)n(Cc2cn(CCCCOC(C)=O)nn2)c1=O | inactive
CC(=O)N(O)[C@@H]1CC[C@H](n2cnc3c(N)ncnc32)C1 | inactive
CN1Cc2cc(O)c(O)cc2C(O)C1 (configuration not stated) | inactive
Cc1ccc(S(=O)(=O)N(CC(O)COc2ccccc2)c2ccccc2Cl)cc1 (configuration not stated) | inactive
COc1ccc(OC)c2sc(N3C(=O)/C(=C/c4ccc(Cl)cc4)N=C3c3ccccc3)nc12 | inactive
c1ccc(C2C3=C(CCCC3)Nc3nc4cc5ccccc5cc4n32)cc1 (configuration not stated) | inactive
COc1ccc(C2=Nn3c(nc4sc(C)c(C)c4c3=O)SC2)cc1 | inactive
Nc1c2c(nc3ccccc13)-c1ccccc1NCCC2 | inactive
CC(C(=O)O)c1ccc(-n2nnc3c(=O)[nH][nH]c(=O)c32)cc1 (configuration not stated) | inactive
CN1N=C(c2ccncc2)OC1c1ccc(C(F)(F)F)cc1 (configuration not stated) | inactive

# input Per the records of this test, what outcome belongs to Cc1cccc(C2NC(=O)c3ccccc3N2)c1 (configuration not stated) ?
# output inactive

----------
GI50 by entry:
- Tested on: M14
- PROTOCOL_NOTES: NCI tumour cell line growth inhibition, 48 h
The source made the active and inactive calls. Cut-off read from the data, not from the text of the source: active = GI50 up to about 1.1 µM and inactive = higher.

Worked examples follow.
COMPOUND | GI50
COc1ccc([C@H]2CC(=O)C[C@H](c3ccc(OC)cc3OC)C23C(=O)c2ccccc2C3=O)c(OC)c1 | > 100 µM (inactive)
CC(C)(C)C(=O)/C=C/c1ccc(Oc2ccccc2)cc1 | 15.3 µM (inactive)
CCOC(=O)/C=C\[C@H]1OC(C)(C)O[C@H]1[C@H](O)[C@H]1COC(C)(C)O1 | 17.8 µM (inactive)

# input Param readout = GI50; param system = M14; param query = CC(C(=O)O)c1ccc(-n2nnc3c(=O)[nH][nH]c(=O)c32)cc1 (centres undefined) ; response: value
# output > 100 µM (inactive)

# input // query: c1ccc2c(c1)CCCN1CCc3ccccc3C21 (centres undefined)
# output 26.9 µM (inactive)

# input Ok, now CCN(CC)c1ccc(C2SCC(=O)N2c2ccc(NC(=O)c3ccc(N4C(=O)CSC4c4ccc(N(CC)CC)cc4)cc3)cc2)cc1 (centres undefined)
# output > 100 µM (inactive)

# input Quick one: `Cc1ccc(-n2c(=O)c3nn4c(=O)n(-c5ccc(C)cc5)c(=O)c4nn3c2=O)cc1`
# output > 100 µM (inactive)

# input Same again, this time with Cc1ccc([S+]([O-])c2ccccc2[N+](=O)[O-])cc1 (centres undefined)
# output > 100 µM (inactive)

# input Proceed to CCOC(=O)C1C(c2ccc(OC)cc2)c2c(n[nH]c2O)CC1(C)O (centres undefined)
# output > 100 µM (inactive)

----------
- Tested on: HCT-15
The reader will find reported GI50 values listed item by item below.

The cases that follow already have their GI50 on record.
COMPOUND | GI50
OC1OC2COC(c3ccccc3)OC2C(O)C1O (stereo unspecified) | > 100 µM
O=P1(O)c2ccccc2Nc2cc(C(F)(F)F)ccc21 | > 100 µM
O=C(/C=C\c1ccc([N+](=O)[O-])cc1)c1ccccc(=O)c1O | 0.169 µM
CC1(n2nc(-c3ccccc3)n(-c3ccccc3)c2=O)CSC1 | > 100 µM
O=C1C=CC(=O)c2c(O)c(N(CCCl)CCCl)c(Cl)c(O)c21 | 5.45 µM

# input Query the reported GI50 for HCT-15; item: CN(C)CCNC(=O)c1cccc2c(NC(CCCNC(=N)N)C(=O)O)c3ccccc3[n+](C)c12 (stereo unspecified)
# output > 100 µM

----------
Entries below carry reported GI50 on HCT-15.

Please review the entries below; each comes with its answer.
COMPOUND | GI50
[O-][N+]1(CC[N+]2([O-])CCCCC2)CCCCC1 | > 100 µM
CN1OC(=O)N(C)C1c1ccccc1 (stereo unspecified) | > 100 µM
Cc1ccc(C(=O)CC2=Nc3nnc(CCCCCCCc4nnc5n4C(=O)C(CC(=O)c4ccc(C)cc4)=N5)n3C2=O)cc1 | > 100 µM

# input Request the reported GI50 associated with COC1=CC2(C=CC1=O)CCNC1=C2C(=O)c2nc[nH]c2C1=O (stereo unspecified)
# output > 100 µM

# input Another compound: `CC(=O)N(O)[C@@H]1CC[C@H](n2cnc3c(N)ncnc32)C1`
# output > 100 µM

# input Check `Nc1cc(Cl)cc2cc(Cl)cnc12` too.
# output > 100 µM

----------
Items are presented alongside their recorded GI50.
- Tested on: EKVX
- PROTOCOL_NOTES: NCI tumour cell line growth inhibition, 48 h
Active and inactive are the calls of the source. Cut-off read from the data, not from the text of the source: active = GI50 up to about 1.1 µM and inactive = higher.

Field: example entries. Status: answers known.
MOLECULE | EXPERIMENTAL_SYSTEM | GI50
NC(=O)Nc1ccc(S(=O)(=O)Nc2ccc(S(N)(=O)=O)cc2)cc1 | EKVX | > 100 µM (inactive)
C=C(NC(=O)C(=C)NC(=O)c1csc(C2=NC3c4csc(n4)C4NC(=O)c5csc(n5)C(C(C)(O)C(C)O)NC(=O)C5CSC(=N5)/C(=C/C)NC(=O)C(C(C)O)NC(=O)c5csc(n5)C3(CC2)NC(=O)C(C)NC(=O)C(=C)NC(=O)C(=C)NC(=O)C(C(C)C)NC2C=Cc3c(C(C)O)cc(nc3C2O)C(=O)OC4C)n1)C(N)=O (stereo not given) | EKVX | 3.92 µM (inactive)
C=C(C)C1CC=C(C)C(=O)C1 (stereo not given) [CARVONE] | EKVX | > 100 µM (inactive)

# input Entry NC(=O)N/N=C1\CC2C3CC4C2C4C13 (stereo not given) : reported GI50 = ?
# output > 100 µM (inactive)

# input For `C#CCn1c(=O)ccn(/C(=C/C(=O)OCC)C(=O)OCC)c1=O` then?
# output 5.62 µM (inactive)

# input Can you check CC1(C)C2CCC1(CS(=O)(=O)Nc1ccccc1)C(=O)C2 (stereo not given) next?
# output > 100 µM (inactive)

# input Query CC#CCC1CCC(OCC)=CC1=O (stereo not given) next
# output > 100 µM (inactive)

----------
- System: M14
- PROTOCOL_NOTES: NCI tumour cell line growth inhibition, 48 h
Activity calls are given as the source filed them. No stated cut-off is given here; in the data, active = GI50 up to about 1.1 µM and inactive = higher.
Please state which outcome applies, choosing from label 1 for active, label 0 for inactive

# count of solved cases: 6
COMPOUND | LABEL_VALUE
COc1cc2c(cc1OC)-c1[nH]c3ccc([N+](=O)[O-])cc3c1CC(=O)N2 | label 0
Cc1cccc(C2NC(=O)c3ccccc3N2)c1 (stereo unspecified) | label 0
COc1ccc(-c2cc(-c3cc4cc(Br)ccc4nc3Cl)c(C#N)c(N)n2)cc1 | label 0
C=CCCC(=O)CC(O)(C(F)(F)F)C(F)(F)F | label 0
C/C=C1\CC2C(=O)CCC2C2c3ccccc3OC12 (stereo unspecified) | label 0
COc1cc(S(=O)(=O)Nc2ccc(-c3csc(/N=C\c4ccccc4)n3)cc2)ccc1Cl | label 0

# input Which outcome was entered for the compound CC(=O)Nc1cc(/C=C\C(=O)N2CC(CCl)c3c2cc(N)c2ccccc32)n(C)n1 (stereo unspecified) in this test?
# output label 1

# input What about this compound? `O=P1(O)c2ccccc2Nc2cc(C(F)(F)F)ccc21`
# output label 0

----------
- System: OVCAR-8
- PROTOCOL_NOTES: NCI tumour cell line growth inhibition, 48 h
Active and inactive are the calls of the source. Cut-off read from the data, not from the text of the source: active = GI50 up to about 1.1 µM and inactive = higher.
READOUT_KIND: GI50

Some solved entries appear below for comparison.
MOLECULE | GI50
CC(=O)O[C@@H]1C(C2CCCCC2)C=[N+]([O-])O[C@@H]1OC1CCCC1(c1ccccc1)c1ccccc1 (stereo partly drawn) | 2.04 µM (inactive)
CCCCn1c(-c2ccc([N+](=O)[O-])cc2)cs/c1=N/N=C1\C(=O)Nc2ccc(Br)cc21 | 30 µM (inactive)

# input I'm curious: which GI50 was measured for `COc1ccc(CNc2nc3ccccc3nc2C(=O)O)cc1OC` tested on OVCAR-8?
# output > 100 µM (inactive)

----------
- System: K562
- PROTOCOL_NOTES: NCI tumour cell line growth inhibition, 48 h
Active and inactive are the calls of the source. Cut-off read from the data, not from the text of the source: active = GI50 up to about 1.1 µM and inactive = higher.
READOUT_KIND: GI50

# input Quick one: GI50 for CCOCc1c(C)cc(C)c(C2C(C(=O)c3ccccc3)N3c4ccccc4C=CC3C2(C#N)C(=O)OCC)c1C (stereo not given) ?
# output > 100 µM (inactive)

# input And then COc1cc(/C=C2/SC(c3ccccc3)N(c3cccc(Cl)c3)C2=O)cc(OC)c1OC (stereo not given) , what is it?
# output 13.5 µM (inactive)

# input Now this one: `CN(C)CCNC(=O)c1cccc(N(C)C(=O)c2ccccc2)c1[N+](=O)[O-]`
# output > 100 µM (inactive)

# input Queued: `Nc1c2c(nc3ccccc13)-c1ccccc1NCCC2`
# output 23.4 µM (inactive)

# input Note, next up: `O=C1c2c(ccc3c2CCCC3)CC12Cc1ccccc1C2`
# output 11.8 µM (inactive)
